tested on: NCI-H1975; assay: relative viability (nuclei count vs DMSO), 5 days (fraction); higher = more cells survive; settings: first compound 0.05 µM
RECORDED_ENDPOINT: relative viability
Lab note: record just the number, no unit beside it.

**Q:** Report relative viability for COc1cc2nccc(Oc3ccc(NC(=O)Nc4cc(C)on4)c(Cl)c3)c2cc1OC [Tivozanib] + CS(=O)(=O)CCNCc1ccc(-c2ccc3ncnc(Nc4ccc(OCc5cccc(F)c5)c(Cl)c4)c3c2)o1 [Lapatinib] (partner 2 µM) please.
**A:** 0.864

**Q:** Lookup COc1cc2nccc(Oc3ccc(NC(=O)Nc4cc(C)on4)c(Cl)c3)c2cc1OC [Tivozanib] + O=C(c1cc(Cc2n[nH]c(=O)c3ccccc23)ccc1F)N1CCN(C(=O)C2CC2)CC1 [Olaparib] (partner 8 µM)
**A:** 0.756

**Q:** Same lookup for Nc1ccn([C@@H]2O[C@H](CO)[C@@H](O)[C@@H]2O)c(=O)n1 [Cytarabine] + Nc1nc2[nH]cc(CCc3ccc(C(=O)N[C@@H](CCC(=O)O)C(=O)O)cc3)c2c(=O)[nH]1 [Pemetrexed] (partner 0.2 µM) , please.
**A:** 0.297

**Q:** And COc1cc2nccc(Oc3ccc(NC(=O)Nc4cc(C)on4)c(Cl)c3)c2cc1OC [Tivozanib] + COc1cccc2cc(-c3nc([C@H]4CC[C@H](C(=O)O)CC4)n4ncnc(N)c34)[nH]c12 [OSI-027] (partner 0.5 µM) ?
**A:** 0.709

----------
tested on: NCI-H661; assay: relative viability (nuclei count vs DMSO), 5 days (fraction); higher = more cells survive; conditions: first compound 0.5 µM
RECORDED_ENDPOINT: relative viability
Could you respond with only the numeric value?

**Q:** Fill in the blank: the reported relative viability of COc1cc2nccc(Oc3ccc(NC(=O)Nc4cc(C)on4)c(Cl)c3)c2cc1OC [Tivozanib] + CS(=O)(=O)CCNCc1ccc(-c2ccc3ncnc(Nc4ccc(OCc5cccc(F)c5)c(Cl)c4)c3c2)o1 [Lapatinib] (partner 2 µM) is ____.
**A:** 0.553

**Q:** Check COc1cc2nccc(Oc3ccc(NC(=O)Nc4cc(C)on4)c(Cl)c3)c2cc1OC [Tivozanib] + C[C@]1(O)C[C@@H](c2nc(-c3ccc4ccc(-c5ccccc5)nc4c3)c3c(N)nccn32)C1 [Linsitinib] (partner 1 µM) too.
**A:** 0.652

**Q:** Same again, this time with COc1cc2nccc(Oc3ccc(NC(=O)Nc4cc(C)on4)c(Cl)c3)c2cc1OC [Tivozanib] + Cc1cc(Nc2cc(N3CCN(C)CC3)nc(Sc3ccc(NC(=O)C4CC4)cc3)n2)n[nH]1 [Tozasertib] (partner 0.1 µM)
**A:** 0.363

**Q:** Same lookup for COc1cc2nccc(Oc3ccc(NC(=O)Nc4cc(C)on4)c(Cl)c3)c2cc1OC [Tivozanib] + Cc1nc(Nc2ncc(C(=O)Nc3c(C)cccc3Cl)s2)cc(N2CCN(CCO)CC2)n1 [Dasatinib] (partner 0.075 µM) , please.
**A:** 0.796

**Q:** Field entry: Nc1ccn([C@@H]2O[C@H](CO)[C@@H](O)[C@@H]2O)c(=O)n1 [Cytarabine] + CC(=O)c1c(C)c2cnc(Nc3ccc(N4CCNCC4)cn3)nc2n(C2CCCC2)c1=O [Palbociclib] (partner 0.5 µM)
**A:** 0.251

**Q:** Another compound: COc1cc2nccc(Oc3ccc(NC(=O)Nc4cc(C)on4)c(Cl)c3)c2cc1OC [Tivozanib] + Nc1nc2[nH]cc(CCc3ccc(C(=O)N[C@@H](CCC(=O)O)C(=O)O)cc3)c2c(=O)[nH]1 [Pemetrexed] (partner 0.2 µM)
**A:** 0.854

**Q:** Query Nc1ccn([C@@H]2O[C@H](CO)[C@@H](O)[C@@H]2O)c(=O)n1 [Cytarabine] + COc1cc2c(Oc3ccc(NC(=O)C4(C(=O)Nc5ccc(F)cc5)CC4)cc3F)ccnc2cc1OCCCN1CCOCC1 [Foretinib] (partner 0.25 µM) next
**A:** 0.519

**Q:** Please answer likewise for Nc1ccn([C@@H]2O[C@H](CO)[C@@H](O)[C@@H]2O)c(=O)n1 [Cytarabine] + CCNC(=O)c1noc(-c2cc(C(C)C)c(O)cc2O)c1-c1ccc(CN2CCOCC2)cc1 [Luminespib] (partner 0.01 µM)
**A:** 0.37

----------
For each of the compounds below, state its relative viability.
test system: LCLC-97TM1; assay: relative viability (nuclei count vs DMSO), 5 days (fraction); higher = more cells survive; conditions: first compound 0.5 µM
Lab note: jot down the number only; don't add units.

**Q:** # get_value(readout='relative viability', item= COc1cc2nccc(Oc3ccc(NC(=O)Nc4cc(C)on4)c(Cl)c3)c2cc1OC [Tivozanib] + CCNC(=O)c1noc(-c2cc(C(C)C)c(O)cc2O)c1-c1ccc(CN2CCOCC2)cc1 [Luminespib] (partner 0.01 µM) )
**A:** 0.738

**Q:** Try this compound too: Nc1ccn([C@@H]2O[C@H](CO)[C@@H](O)[C@@H]2O)c(=O)n1 [Cytarabine] + CCNC(=O)c1noc(-c2cc(C(C)C)c(O)cc2O)c1-c1ccc(CN2CCOCC2)cc1 [Luminespib] (partner 0.01 µM)
**A:** 0.344

----------
system: NCI-H2170; assay: relative viability (nuclei count vs DMSO), 5 days (fraction); higher = more cells survive; details: first compound 0.1265 µM
I'd appreciate it if you could supply relative viability values for the items below.
Answer with a bare number; do not write a unit.

**Q:** Form entry - test system: NCI-H2170; read-out: relative viability; compound: Cc1sc2c(c1C)C(c1ccc(Cl)cc1)=N[C@@H](CC(=O)OC(C)(C)C)c1nnc(C)n1-2 [JQ1] + CCNC(=O)c1noc(-c2cc(C(C)C)c(O)cc2O)c1-c1ccc(CN2CCOCC2)cc1 [Luminespib] (partner 0.01 µM)
**A:** 0.837

**Q:** What do you have for Cc1sc2c(c1C)C(c1ccc(Cl)cc1)=N[C@@H](CC(=O)OC(C)(C)C)c1nnc(C)n1-2 [JQ1] + CC(=O)c1c(C)c2cnc(Nc3ccc(N4CCNCC4)cn3)nc2n(C2CCCC2)c1=O [Palbociclib] (partner 0.5 µM) ?
**A:** 0.353

**Q:** Now consider Cc1sc2c(c1C)C(c1ccc(Cl)cc1)=N[C@@H](CC(=O)OC(C)(C)C)c1nnc(C)n1-2 [JQ1] + Cc1nc(Nc2ncc(C(=O)Nc3c(C)cccc3Cl)s2)cc(N2CCN(CCO)CC2)n1 [Dasatinib] (partner 0.075 µM) and answer again.
**A:** 0.47

**Q:** // same read-out, input: Cc1sc2c(c1C)C(c1ccc(Cl)cc1)=N[C@@H](CC(=O)OC(C)(C)C)c1nnc(C)n1-2 [JQ1] + Cc1cc(Nc2cc(N3CCN(C)CC3)nc(Sc3ccc(NC(=O)C4CC4)cc3)n2)n[nH]1 [Tozasertib] (partner 0.1 µM)
**A:** 0.64

----------
Kindly supply the reported relative viability values for the records listed here.
test system: 201T; assay: relative viability (nuclei count vs DMSO), 5 days (fraction); higher = more cells survive; details: first compound 0.02 µM
The answer should be written as a number, with no unit following it.

**Q:** Any idea what relative viability was measured for CC(=O)O[C@@]12CO[C@@H]1C[C@H](O)[C@@]1(C)C(=O)[C@H](O)C3=C(C)[C@@H](OC(=O)[C@H](O)[C@@H](NC(=O)OC(C)(C)C)c4ccccc4)C[C@@](O)([C@@H](OC(=O)c4ccccc4)[C@H]21)C3(C)C [Docetaxel] + CC(=O)Nc1cccc(-n2c(=O)n(C3CC3)c(=O)c3c(Nc4ccc(I)cc4F)n(C)c(=O)c(C)c32)c1 [Trametinib] (partner 0.02 µM) ?
**A:** 0.366

**Q:** Same again, this time with CC(=O)O[C@@]12CO[C@@H]1C[C@H](O)[C@@]1(C)C(=O)[C@H](O)C3=C(C)[C@@H](OC(=O)[C@H](O)[C@@H](NC(=O)OC(C)(C)C)c4ccccc4)C[C@@](O)([C@@H](OC(=O)c4ccccc4)[C@H]21)C3(C)C [Docetaxel] + NC(=O)Nc1cc(-c2cccc(F)c2)sc1C(=O)N[C@H]1CCCNC1 [AZD7762] (partner 0.2 µM)
**A:** 0.246

**Q:** Okay, and CC(=O)O[C@@]12CO[C@@H]1C[C@H](O)[C@@]1(C)C(=O)[C@H](O)C3=C(C)[C@@H](OC(=O)[C@H](O)[C@@H](NC(=O)OC(C)(C)C)c4ccccc4)C[C@@](O)([C@@H](OC(=O)c4ccccc4)[C@H]21)C3(C)C [Docetaxel] + O=C(c1cc(Cc2n[nH]c(=O)c3ccccc23)ccc1F)N1CCN(C(=O)C2CC2)CC1 [Olaparib] (partner 8 µM) ?
**A:** 0.267

**Q:** Cool, now CC(=O)O[C@@]12CO[C@@H]1C[C@H](O)[C@@]1(C)C(=O)[C@H](O)C3=C(C)[C@@H](OC(=O)[C@H](O)[C@@H](NC(=O)OC(C)(C)C)c4ccccc4)C[C@@](O)([C@@H](OC(=O)c4ccccc4)[C@H]21)C3(C)C [Docetaxel] + CS(=O)(=O)N1CCN(Cc2cc3nc(-c4cccc5[nH]ncc45)nc(N4CCOCC4)c3s2)CC1 [Pictilisib] (partner 1 µM)
**A:** 0.289
